system.under.test: wtKIT (Homo sapiens, UniProt P10721)
Construct: 1888289AM in the reaction mixtures
Sequence (P10721 26-976): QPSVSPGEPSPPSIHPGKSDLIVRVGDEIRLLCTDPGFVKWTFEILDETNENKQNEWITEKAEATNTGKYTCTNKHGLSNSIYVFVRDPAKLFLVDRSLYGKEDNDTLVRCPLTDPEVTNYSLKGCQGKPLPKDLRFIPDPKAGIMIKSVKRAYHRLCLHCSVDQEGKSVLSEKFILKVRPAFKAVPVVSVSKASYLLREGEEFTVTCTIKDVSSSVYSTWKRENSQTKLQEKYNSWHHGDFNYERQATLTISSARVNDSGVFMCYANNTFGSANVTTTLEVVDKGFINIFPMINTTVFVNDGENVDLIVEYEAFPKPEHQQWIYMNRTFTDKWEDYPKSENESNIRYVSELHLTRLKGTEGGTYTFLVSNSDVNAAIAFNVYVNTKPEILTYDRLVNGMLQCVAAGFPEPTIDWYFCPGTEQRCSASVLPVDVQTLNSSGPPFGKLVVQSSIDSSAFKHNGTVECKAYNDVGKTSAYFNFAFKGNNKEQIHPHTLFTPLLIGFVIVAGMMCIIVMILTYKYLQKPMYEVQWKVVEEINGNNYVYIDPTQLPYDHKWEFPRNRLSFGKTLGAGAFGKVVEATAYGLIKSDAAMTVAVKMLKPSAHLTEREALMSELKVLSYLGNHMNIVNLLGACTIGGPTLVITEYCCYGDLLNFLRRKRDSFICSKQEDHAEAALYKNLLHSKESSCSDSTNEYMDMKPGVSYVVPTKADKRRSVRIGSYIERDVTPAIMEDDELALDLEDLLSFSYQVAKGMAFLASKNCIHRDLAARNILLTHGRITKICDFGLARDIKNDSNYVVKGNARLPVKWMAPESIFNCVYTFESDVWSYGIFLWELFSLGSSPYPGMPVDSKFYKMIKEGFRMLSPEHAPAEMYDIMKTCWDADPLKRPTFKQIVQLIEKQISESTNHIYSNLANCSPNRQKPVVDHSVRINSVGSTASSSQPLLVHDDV
procedure.details: Caliper biochemical assay, wtKIT
assay.context: Table 6, read-out: KIT Biochemical IC50 avg
pIC50: −log10 of the molar value.
attribute.measured: pIC50

INSERT INTO measurements (compound, system_under_test, assay_result) VALUES
  ('Cc1ccc(-c2noc([C@H]3C[C@@H]3F)n2)cc1NC(=O)c1cnc2cc(N3CCC(C)CC3)ccn12', 'wtKIT (Homo sapiens, UniProt P10721)', '≥ 7.30'),
  ('Cc1nc(-c2ccc(C)c(NC(=O)c3cnc4ccccn34)c2)no1', 'wtKIT (Homo sapiens, UniProt P10721)', '≥ 7.30'),
  ('COC(=O)N1CC(c2nc(-c3ccc(Br)c(NC(=O)c4cnc5ccccn45)c3)no2)C1', 'wtKIT (Homo sapiens, UniProt P10721)', '≥ 7.30'),
  ('Cc1ccc(-c2noc(C(C)NS(C)(=O)=O)n2)cc1NC(=O)c1cnc2ccccn12 (single isomer, unassigned) [Compound I-237]', 'wtKIT (Homo sapiens, UniProt P10721)', '6.30 to 7.30'),
  ('Cc1ccc(-c2noc(C3CC3(C)C)n2)cc1NC(=O)c1cnc2ccccn12 (stereo not shown)', 'wtKIT (Homo sapiens, UniProt P10721)', '≥ 7.30');

Recorded pIC50 of Cc1ccc(-c2noc(C3CC(Oc4ccccc4)C3)n2)cc1NC(=O)c1cnc2ccccn12 (stereo not shown) [Compound I-347] , please. ≥ 7.30

Recorded pIC50 of `Cc1ccc(-c2noc(C3CN(C(=O)CO)C3)n2)cc1NC(=O)c1cnc2ccccn12` , please. 6.30 to 7.30

====

Readings of MDCKII-MDR1: Efflux Ratio for the listed compounds
system.under.test: MDR1 (MDR1-MDCKII cells) (Homo sapiens)
Construct: host or cells: MDCKII (canine kidney) cells
Sequence (P08183 whole entry): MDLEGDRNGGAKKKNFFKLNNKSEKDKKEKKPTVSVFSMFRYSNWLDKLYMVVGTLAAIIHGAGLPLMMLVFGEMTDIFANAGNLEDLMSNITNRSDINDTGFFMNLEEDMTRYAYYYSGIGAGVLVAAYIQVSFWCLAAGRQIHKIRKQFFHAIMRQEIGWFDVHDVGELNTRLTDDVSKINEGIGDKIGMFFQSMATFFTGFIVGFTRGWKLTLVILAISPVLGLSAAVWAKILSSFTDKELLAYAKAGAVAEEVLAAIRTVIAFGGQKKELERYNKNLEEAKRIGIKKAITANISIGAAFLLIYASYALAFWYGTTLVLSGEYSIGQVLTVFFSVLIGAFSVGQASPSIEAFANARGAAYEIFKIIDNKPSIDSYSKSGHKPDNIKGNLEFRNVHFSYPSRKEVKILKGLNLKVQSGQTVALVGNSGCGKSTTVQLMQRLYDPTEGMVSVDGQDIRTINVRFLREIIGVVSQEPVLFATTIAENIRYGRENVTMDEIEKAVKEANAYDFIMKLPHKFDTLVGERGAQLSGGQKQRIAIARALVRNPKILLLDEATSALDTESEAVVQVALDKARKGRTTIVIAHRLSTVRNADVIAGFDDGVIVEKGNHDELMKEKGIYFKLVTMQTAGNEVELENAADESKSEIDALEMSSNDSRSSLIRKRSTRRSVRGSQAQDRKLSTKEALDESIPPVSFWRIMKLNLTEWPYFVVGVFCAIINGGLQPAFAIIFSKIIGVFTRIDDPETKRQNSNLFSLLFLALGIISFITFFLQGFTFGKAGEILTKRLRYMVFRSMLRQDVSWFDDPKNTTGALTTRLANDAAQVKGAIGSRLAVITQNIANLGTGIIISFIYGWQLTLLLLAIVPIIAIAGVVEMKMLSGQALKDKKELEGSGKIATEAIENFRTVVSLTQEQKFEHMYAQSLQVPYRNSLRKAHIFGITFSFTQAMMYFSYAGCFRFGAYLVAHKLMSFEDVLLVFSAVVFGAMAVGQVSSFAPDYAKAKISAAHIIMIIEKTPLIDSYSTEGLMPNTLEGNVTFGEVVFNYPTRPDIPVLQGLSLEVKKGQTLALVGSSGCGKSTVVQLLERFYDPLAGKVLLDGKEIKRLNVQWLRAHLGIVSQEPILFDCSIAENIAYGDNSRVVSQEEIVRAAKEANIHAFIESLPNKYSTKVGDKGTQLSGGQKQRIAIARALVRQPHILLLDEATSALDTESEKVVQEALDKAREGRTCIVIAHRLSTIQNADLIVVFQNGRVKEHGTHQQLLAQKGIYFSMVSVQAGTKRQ
procedure.details: Permeability in MDR1-MDCKII cells
Assay type: in vitro ADME
assay.context: MDCKII-MDR1
Answer with a bare number; do not write a unit.

Example results:
INSERT INTO results (compound, assay_result) VALUES
  ('Cc1ccc(-c2noc([C@@H](C)O)n2)cc1NC(=O)c1cnc2ccccn12', 1.73),
  ('Cc1ccc(-c2noc(C3CCC3F)n2)cc1NC(=O)c1cnc2ccccn12 (racemic)', 0.54),
  ('Cc1ccc(-c2noc(C3(N)CC4(CC(F)(F)C4)C3)n2)cc1NC(=O)c1cnc2ccccn12', 1.93);

Then this compound:
Recorded MDCKII-MDR1: Efflux Ratio of Cc1ccc(-c2noc(C3CC(OCCF)C3)n2)cc1NC(=O)c1cnc2ccccn12 (stereo not shown) , please. 0.87

====

system.under.test: PDGFRα (Homo sapiens)
Construct: purchased Millipore 14-467 (lot 26321_ACTI)
Sequence (P16234 24-1089): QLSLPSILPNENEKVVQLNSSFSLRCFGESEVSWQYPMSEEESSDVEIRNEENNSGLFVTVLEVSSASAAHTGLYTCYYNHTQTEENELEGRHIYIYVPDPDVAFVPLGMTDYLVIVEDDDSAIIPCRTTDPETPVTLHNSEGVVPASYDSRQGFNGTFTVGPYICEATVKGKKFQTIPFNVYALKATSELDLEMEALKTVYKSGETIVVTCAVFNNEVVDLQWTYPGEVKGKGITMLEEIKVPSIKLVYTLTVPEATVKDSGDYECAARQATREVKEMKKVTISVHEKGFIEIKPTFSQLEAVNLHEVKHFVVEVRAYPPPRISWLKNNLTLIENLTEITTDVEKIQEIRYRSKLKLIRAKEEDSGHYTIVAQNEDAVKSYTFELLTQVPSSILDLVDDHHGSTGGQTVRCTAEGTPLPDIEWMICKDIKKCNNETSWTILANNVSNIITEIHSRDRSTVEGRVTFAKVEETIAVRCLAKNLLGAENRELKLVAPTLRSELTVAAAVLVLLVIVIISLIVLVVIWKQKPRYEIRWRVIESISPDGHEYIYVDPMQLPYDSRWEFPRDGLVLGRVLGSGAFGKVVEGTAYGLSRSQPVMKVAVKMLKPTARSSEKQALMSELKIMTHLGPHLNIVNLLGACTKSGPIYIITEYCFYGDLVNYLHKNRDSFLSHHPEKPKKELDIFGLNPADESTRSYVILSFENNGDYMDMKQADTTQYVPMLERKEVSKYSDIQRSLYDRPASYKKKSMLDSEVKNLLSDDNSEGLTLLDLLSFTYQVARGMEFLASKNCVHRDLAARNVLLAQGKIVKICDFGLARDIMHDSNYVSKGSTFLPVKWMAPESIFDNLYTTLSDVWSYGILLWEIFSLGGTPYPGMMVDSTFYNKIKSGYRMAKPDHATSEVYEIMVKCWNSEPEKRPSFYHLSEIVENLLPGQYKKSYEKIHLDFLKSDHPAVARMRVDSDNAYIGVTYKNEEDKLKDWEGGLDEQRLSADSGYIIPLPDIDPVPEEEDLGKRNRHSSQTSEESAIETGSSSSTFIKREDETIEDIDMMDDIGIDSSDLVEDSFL
procedure.details: HTRF biochemical assay, PDGFRα
assay.context: Table 4, read-out: PDFGRα Biochemical IC50 avg
pIC50: −log10 of the molar value.
Readings of pIC50 for the listed compounds

INSERT INTO results (compound, assay_result) VALUES
  ('COC(=O)N1CC(c2nc(-c3ccc(Cl)c(NC(=O)c4cnc5ccccn45)c3)no2)C1 [Compound I-339]', '5.30 to 6.30');

Recorded pIC50 of COCc1ccn2c(C(=O)Nc3cc(-c4noc(C)n4)ccc3C)cnc2c1 [Compound I-132] , please. 5.30 to 6.30

Recorded pIC50 of COc1ccn2c(C(=O)Nc3cc(-c4noc(CC(O)C(F)F)n4)ccc3C)cnc2c1 (single isomer, unassigned) [Compound I-76] , please. 6.30 to 7.30

Recorded pIC50 of COc1ccn2c(C(=O)Nc3cc(-c4noc(CC5CC(F)(F)C5)n4)ccc3C)cnc2c1 [Compound I-91] , please. 6.30 to 7.30

====

system.under.test: BCRP (BCRP-MDCKII monolayer) (Homo sapiens, UniProt Q9UNQ0)
Construct: host or cells: MDCKII (canine kidney) cells
Sequence (Q9UNQ0 whole entry): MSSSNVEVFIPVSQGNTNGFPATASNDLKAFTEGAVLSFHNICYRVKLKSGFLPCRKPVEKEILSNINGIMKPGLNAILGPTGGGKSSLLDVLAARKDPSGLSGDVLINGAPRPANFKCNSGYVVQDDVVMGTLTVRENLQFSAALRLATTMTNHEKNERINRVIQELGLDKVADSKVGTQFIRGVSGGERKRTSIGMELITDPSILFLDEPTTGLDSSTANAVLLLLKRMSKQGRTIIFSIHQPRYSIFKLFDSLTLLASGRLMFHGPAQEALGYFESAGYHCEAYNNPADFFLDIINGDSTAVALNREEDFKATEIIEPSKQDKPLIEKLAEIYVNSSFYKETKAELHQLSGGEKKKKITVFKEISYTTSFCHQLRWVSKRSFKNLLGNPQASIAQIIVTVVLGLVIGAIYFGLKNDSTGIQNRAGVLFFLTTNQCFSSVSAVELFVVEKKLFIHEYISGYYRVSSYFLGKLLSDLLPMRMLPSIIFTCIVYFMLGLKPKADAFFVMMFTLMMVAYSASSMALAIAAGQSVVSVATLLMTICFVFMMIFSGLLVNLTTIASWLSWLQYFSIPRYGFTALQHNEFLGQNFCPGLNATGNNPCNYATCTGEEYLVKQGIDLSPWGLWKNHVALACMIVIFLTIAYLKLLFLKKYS
procedure.details: MDCKII-BCRP bidirectional transport assay
Assay type: in vitro ADME
assay.context: apical to basolateral
attribute.measured: MDCK-BCRP: Papp A-B

Example results:
INSERT INTO results (compound, system_under_test, assay_result) VALUES
  ('Cc1ccc(-c2noc(C3CCC(F)C3)n2)cc1NC(=O)c1cnc2ccccn12 (racemic) [Compound I-318]', 'BCRP (BCRP-MDCKII monolayer) (Homo sapiens, UniProt Q9UNQ0)', '13.9 10^−6 cm/s'),
  ('Cc1ccc(-c2noc(C3CCC3F)n2)cc1NC(=O)c1cnc2ccccn12 (racemic) [Compound I-376]', 'BCRP (BCRP-MDCKII monolayer) (Homo sapiens, UniProt Q9UNQ0)', '6.24 10^−6 cm/s'),
  ('COCC1(c2nc(-c3ccc(C)c(NC(=O)c4cnc5ccccn45)c3)no2)CC(F)(F)C1', 'BCRP (BCRP-MDCKII monolayer) (Homo sapiens, UniProt Q9UNQ0)', '16 10^−6 cm/s'),
  ('Cc1ccc(-c2noc(-c3ccccn3)n2)cc1NC(=O)c1cnc2ccccn12', 'BCRP (BCRP-MDCKII monolayer) (Homo sapiens, UniProt Q9UNQ0)', '6.58 10^−6 cm/s'),
  ('Cc1ccc(-c2noc(C3CCS(=O)(=O)C3)n2)cc1NC(=O)c1cnc2ccccn12 (racemic)', 'BCRP (BCRP-MDCKII monolayer) (Homo sapiens, UniProt Q9UNQ0)', '0.87 10^−6 cm/s');

Recorded MDCK-BCRP: Papp A-B of `COC(=O)N1CC(c2nc(-c3ccc(Br)c(NC(=O)c4cnc5ccccn45)c3)no2)C1` , please. 23.1 10^−6 cm/s

Recorded MDCK-BCRP: Papp A-B of Cc1ccc(-c2noc(C3CC4(COCCO4)C3)n2)cc1NC(=O)c1cnc2ccccn12 (stereo not shown) , please. 8.04 10^−6 cm/s

Recorded MDCK-BCRP: Papp A-B of Cc1ccc(-c2noc(C3CC(Oc4ccccc4)C3)n2)cc1NC(=O)c1cnc2ccccn12 (stereo not shown) [Compound I-347] , please. 0.17 10^−6 cm/s

Recorded MDCK-BCRP: Papp A-B of `Cc1ccc(-c2noc([C@H]3CC(F)(F)CN3)n2)cc1NC(=O)c1cnc2ccccn12` , please. 4.68 10^−6 cm/s

Recorded MDCK-BCRP: Papp A-B of Cc1ccc(-c2noc(CC3CC3(F)F)n2)cc1NC(=O)c1cnc2ccccn12 (stereo not shown) , please. 9.07 10^−6 cm/s

Recorded MDCK-BCRP: Papp A-B of COC(=O)C1CC(c2nc(-c3ccc(C)c(NC(=O)c4cnc5ccccn45)c3)no2)C1 (stereo not shown) [Compound I-366] , please. 10.2 10^−6 cm/s

====

system.under.test: BCRP (BCRP-MDCKII monolayer) (Homo sapiens)
Construct: host or cells: MDCKII (canine kidney) cells
procedure.details: MDCKII-BCRP bidirectional transport assay
Type: in vitro ADME
assay.context: apical to basolateral
attribute.measured: MDCK-BCRP: Papp A-B

Example results:
INSERT INTO measurements (compound, assay_result) VALUES
  ('Cc1ccc(-c2noc(C34COC(C)(C3)C4)n2)cc1NC(=O)c1cnc2ccccn12', '11.5 10^−6 cm/s'),
  ('COC(=O)N1CC(c2nc(-c3ccc(C)c(NC(=O)c4cnc5ccc(OC[C@H](C)O)cn45)c3)no2)C1', '1.81 10^−6 cm/s'),
  ('Cc1ccc(-c2noc([C@H]3C[C@@H]3F)n2)cc1NC(=O)c1cnc2ccc(F)cn12', '7.81 10^−6 cm/s'),
  ('Cc1ccc(-c2noc(C3(C)CC(F)C3)n2)cc1NC(=O)c1cnc2ccccn12 (stereo not shown)', '11.4 10^−6 cm/s'),
  ('COC1(C(F)F)CC(c2nc(-c3ccc(C)c(NC(=O)c4cnc5ccccn45)c3)no2)C1 (stereo not shown)', '11.4 10^−6 cm/s');

Recorded MDCK-BCRP: Papp A-B of `CNC(=O)N1CC(c2nc(-c3ccc(C)c(NC(=O)c4cnc5ccccn45)c3)no2)C1` , please. 0.55 10^−6 cm/s

Recorded MDCK-BCRP: Papp A-B of COC1(OC)CCC1c1nc(-c2ccc(C)c(NC(=O)c3cnc4ccccn34)c2)no1 (racemic) , please. 16.3 10^−6 cm/s

Recorded MDCK-BCRP: Papp A-B of `COC(=O)N1CC(c2nc(-c3ccc(C(F)F)c(NC(=O)c4cnc5ccccn45)c3)no2)C1` , please. 11.2 10^−6 cm/s

Recorded MDCK-BCRP: Papp A-B of `Cc1ccc(-c2noc([C@@H]3CCCO3)n2)cc1NC(=O)c1cnc2ccccn12` , please. 8.25 10^−6 cm/s

Recorded MDCK-BCRP: Papp A-B of `Cc1nc(-c2ccc(C)c(NC(=O)c3cnc4ccccn34)c2)no1` , please. 9.54 10^−6 cm/s

====

procedure.details: Three time point assay for plasma, brain and testes distribution after oral dosing
Type: in vivo, rat
assay.context: male, SD, brain, 10 mg/kg; rat, oral dosing, time point 0.5 h; read-out: Brain concentration
attribute.measured: concentration at 0.5 h (ng/g)
# number only, unit ng/g dropped from output

Recorded concentration at 0.5 h of Cc1ccc(-c2noc([C@H]3C[C@@H]3F)n2)cc1NC(=O)c1cnc2cc(COCC(C)(C)O)ccn12 [Compound I-71] , please. 91.8
